Reported values of scaled log2 fold change for individual entries
B1: library; numbered along this chain (parent)
chain: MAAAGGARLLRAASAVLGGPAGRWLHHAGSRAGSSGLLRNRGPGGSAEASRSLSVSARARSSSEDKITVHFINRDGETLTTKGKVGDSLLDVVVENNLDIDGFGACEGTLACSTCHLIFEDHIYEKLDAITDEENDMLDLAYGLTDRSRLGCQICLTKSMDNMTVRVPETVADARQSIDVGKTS

- Variants of: B1
- test.protocol: scaled log2 fold change in cell abundance, elesclomol vs control (0 = silent mean, 1 = nonsense mean) (scaled log2 ratio); higher = higher viability under elesclomol (loss of FDX1 cuproptosis function);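 note: variant abundance is its share of total variant reads in each endpoint sample, from next-generation sequencing of the integrated ORF PCR-amplified out of genomic DNA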
- measurement.setup: with ABC1 FDX1 KO; elesclomol 5 nM; glucose 10 mM; 14 days
measured.attribute: scaled log2 fold change

G42M	0.0351
G6F	0.153
R41N	0.199
D87V	-0.164
S14L	-0.903
G6E	0.0669
H70Y	0.0486
D75H	0.273
R31M	0.66
K182F	0.103
